# test-system: T1, Mcl-1, Q07820
# T1 chain: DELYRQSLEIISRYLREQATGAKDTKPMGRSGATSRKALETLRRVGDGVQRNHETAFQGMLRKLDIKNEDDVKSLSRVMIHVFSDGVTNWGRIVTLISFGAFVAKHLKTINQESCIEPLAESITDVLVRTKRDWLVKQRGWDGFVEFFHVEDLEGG
# experiment-notes: peptide SPOT array, c-Myc-tagged receptor at 1 uM or 100 nM, anti-c-Myc-Cy3
endpoint: SPOT signal as a fraction of Bim BH3's signal on the same receptor and array

As a guide, the following entries are already answered.
{"binder": "LGKRTSSVQALKRSARELIEGSRDDS [DST]", "recorded-measurement": 0.05}
{"binder": "LLDFFMVSILFSKLGDLLHKLQFVLT [PCNXL2]", "recorded-measurement": 0.09}
{"binder": "CGDLASLSIDDWTLGEEVDGRRLVVA [BIRC6]", "recorded-measurement": 0.02}
{"binder": "NMSNYSSSSLLSGAGKDSLVEHDEEF [KIAA0367]", "recorded-measurement": 0.02}
{"binder": "TSMETIGAKALEDFADNIKNDPDKEY [EXOC7]", "recorded-measurement": 0.01}
{"binder": "TNISWRACDHLRCIACDFLVVSYDDY [C8orf37]", "recorded-measurement": 0.08}
{"binder": "HQQLTRAARLISETAQRVHTIGQKQK [C9orf100]", "recorded-measurement": 0.57}
{"binder": "REAAVSASDILQESAIHSPGTVEKEA [C12orf43]", "recorded-measurement": 0.01}

P = AEVMRQRGINMRYLLKVLELVLRSPA [KIAA0664]
Q = IPGSAVCAFDLTQVAAVFEGRFREQK [SEMA6B]
Query :: Please indicate which has the smaller reported SPOT signal as a fraction of Bim BH3's signal on the same receptor and array: P , or Q . // return label of chosen record
Result :: Q
